Biological target: JAK 3 (Homo sapiens)
Construct: purchased Eurofins Scientific (assay service)
Sequence (P52333 1-1124): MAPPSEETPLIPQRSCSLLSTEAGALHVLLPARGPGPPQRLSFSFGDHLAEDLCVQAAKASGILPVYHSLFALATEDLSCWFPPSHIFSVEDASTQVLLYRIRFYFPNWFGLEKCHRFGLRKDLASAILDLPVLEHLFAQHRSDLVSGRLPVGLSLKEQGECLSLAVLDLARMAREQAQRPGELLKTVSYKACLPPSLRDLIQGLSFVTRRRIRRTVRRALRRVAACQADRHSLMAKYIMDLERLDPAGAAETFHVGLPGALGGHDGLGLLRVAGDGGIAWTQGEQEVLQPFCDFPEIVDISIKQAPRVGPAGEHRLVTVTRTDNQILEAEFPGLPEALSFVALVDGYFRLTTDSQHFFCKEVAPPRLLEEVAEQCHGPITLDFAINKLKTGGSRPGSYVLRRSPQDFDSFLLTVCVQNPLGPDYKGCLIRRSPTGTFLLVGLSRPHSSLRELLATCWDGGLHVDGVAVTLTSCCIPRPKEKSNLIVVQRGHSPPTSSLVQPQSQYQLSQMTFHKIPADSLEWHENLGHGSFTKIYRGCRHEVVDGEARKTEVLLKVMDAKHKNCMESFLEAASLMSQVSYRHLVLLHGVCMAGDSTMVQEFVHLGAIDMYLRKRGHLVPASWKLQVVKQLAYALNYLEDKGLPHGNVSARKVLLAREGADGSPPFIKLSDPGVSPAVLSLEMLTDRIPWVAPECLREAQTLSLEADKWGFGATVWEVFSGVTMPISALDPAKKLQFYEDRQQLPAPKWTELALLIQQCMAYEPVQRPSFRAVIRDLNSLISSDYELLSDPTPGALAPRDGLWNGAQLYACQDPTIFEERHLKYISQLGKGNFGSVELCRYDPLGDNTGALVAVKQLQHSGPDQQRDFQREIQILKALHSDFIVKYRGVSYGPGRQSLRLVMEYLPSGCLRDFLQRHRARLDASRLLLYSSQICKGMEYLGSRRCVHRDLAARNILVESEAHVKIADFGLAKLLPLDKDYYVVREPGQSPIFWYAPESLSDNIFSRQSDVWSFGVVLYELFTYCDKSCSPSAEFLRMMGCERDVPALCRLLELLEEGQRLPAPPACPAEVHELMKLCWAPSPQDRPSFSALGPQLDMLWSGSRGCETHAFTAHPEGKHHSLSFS
Test: JAK Human TK kinase enzymatic radiometric assay (Eurofins), JAK 3
Format: biochemical
Set-up: unit not given here
Details: 100 nM; value close to 100 indicates low JAK activity of the compound
Measurement type: JAK 3 Activity

| Chem smiles | Assay system | Result number |
| --- | --- | --- |
| Cc1ccc(NC(=O)N(C(=O)n2ccc3c(N(C)[C@H]4CN(C(=O)CC#N)CC[C@H]4C)ncnc32)c2ccc(C)cc2N)c(N)c1 | JAK 3 (Homo sapiens) | 88 |
| C[C@@H]1CCN(C(=O)CC#N)C[C@@H]1N(C)c1ncnc2c1ccn2C(=O)N(C(=O)Nc1ccccc1N)c1ccccc1N | JAK 3 (Homo sapiens) | 94 |
| C[C@@H]1CCN(C(=O)CC#N)C[C@@H]1N(C)c1ncnc2c1ccn2C(=O)Nc1ccccc1N | JAK 3 (Homo sapiens) | 16 |
| COc1ccc(NC(=O)N(C(=O)n2ccc3c(N(C)[C@H]4CN(C(=O)CC#N)CC[C@H]4C)ncnc32)c2ccc(OC)cc2N)c(N)c1 | JAK 3 (Homo sapiens) | 92 |

---

Target: JAK 2 (Homo sapiens, UniProt O60674)
Construct: purchased Eurofins Scientific (assay service)
Sequence (O60674 whole entry): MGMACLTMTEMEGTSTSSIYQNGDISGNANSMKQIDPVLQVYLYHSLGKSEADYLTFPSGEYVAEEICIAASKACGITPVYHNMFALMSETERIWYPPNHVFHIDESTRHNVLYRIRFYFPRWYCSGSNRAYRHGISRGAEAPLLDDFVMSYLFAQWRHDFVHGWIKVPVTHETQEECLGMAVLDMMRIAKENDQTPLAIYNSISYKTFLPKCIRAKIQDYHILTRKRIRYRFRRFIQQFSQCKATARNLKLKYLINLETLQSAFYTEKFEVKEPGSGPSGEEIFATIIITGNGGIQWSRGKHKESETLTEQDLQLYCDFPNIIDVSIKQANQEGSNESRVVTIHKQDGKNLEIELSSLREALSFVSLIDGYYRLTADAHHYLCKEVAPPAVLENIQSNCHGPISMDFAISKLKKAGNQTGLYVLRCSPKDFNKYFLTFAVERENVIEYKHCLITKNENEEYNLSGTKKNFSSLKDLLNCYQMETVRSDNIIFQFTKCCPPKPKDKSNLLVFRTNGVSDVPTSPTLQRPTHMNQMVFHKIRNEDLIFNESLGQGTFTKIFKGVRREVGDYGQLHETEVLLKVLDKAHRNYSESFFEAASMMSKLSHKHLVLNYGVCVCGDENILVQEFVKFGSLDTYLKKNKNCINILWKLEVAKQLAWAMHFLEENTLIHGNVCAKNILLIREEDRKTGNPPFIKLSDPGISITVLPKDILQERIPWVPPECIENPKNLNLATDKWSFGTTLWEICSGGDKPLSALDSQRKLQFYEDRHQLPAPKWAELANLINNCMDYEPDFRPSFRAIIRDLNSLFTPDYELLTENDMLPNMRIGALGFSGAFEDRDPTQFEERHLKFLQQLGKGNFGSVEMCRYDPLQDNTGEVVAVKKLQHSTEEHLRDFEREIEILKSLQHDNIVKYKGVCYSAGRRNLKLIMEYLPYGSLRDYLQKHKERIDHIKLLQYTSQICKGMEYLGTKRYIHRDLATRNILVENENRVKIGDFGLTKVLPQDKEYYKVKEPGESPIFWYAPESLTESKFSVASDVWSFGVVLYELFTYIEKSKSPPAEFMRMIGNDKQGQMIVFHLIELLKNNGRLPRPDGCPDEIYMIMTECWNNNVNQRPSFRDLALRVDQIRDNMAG
Test: JAK Human TK kinase enzymatic radiometric assay (Eurofins), JAK 2
Type: biochemical
Design: unit not given here
Conditions: 0.1 nM; value close to 100 indicates low JAK activity of the compound
Measurement type: JAK 2 Activity

| Chem smiles | JAK 2 Activity |
| --- | --- |
| Cc1ccc(NC(=O)N(C(=O)n2ccc3c(N(C)[C@H]4CN(C(=O)CC#N)CC[C@H]4C)ncnc32)c2ccc(C)cc2N)c(N)c1 | 108 |
| C[C@@H]1CCN(C(=O)CC#N)C[C@@H]1N(C)c1ncnc2c1ccn2C(=O)N(C(=O)Nc1ccccc1N)c1ccccc1N | 91 |
| C[C@@H]1CCN(C(=O)CC#N)C[C@@H]1N(C)c1ncnc2c1ccn2C(=O)Nc1ccccc1N | 100 |
| COc1ccc(NC(=O)N(C(=O)n2ccc3c(N(C)[C@H]4CN(C(=O)CC#N)CC[C@H]4C)ncnc32)c2ccc(OC)cc2N)c(N)c1 | 120 |

---

Target: JAK 1 (Homo sapiens, UniProt P23458)
Sequence (P23458 whole entry): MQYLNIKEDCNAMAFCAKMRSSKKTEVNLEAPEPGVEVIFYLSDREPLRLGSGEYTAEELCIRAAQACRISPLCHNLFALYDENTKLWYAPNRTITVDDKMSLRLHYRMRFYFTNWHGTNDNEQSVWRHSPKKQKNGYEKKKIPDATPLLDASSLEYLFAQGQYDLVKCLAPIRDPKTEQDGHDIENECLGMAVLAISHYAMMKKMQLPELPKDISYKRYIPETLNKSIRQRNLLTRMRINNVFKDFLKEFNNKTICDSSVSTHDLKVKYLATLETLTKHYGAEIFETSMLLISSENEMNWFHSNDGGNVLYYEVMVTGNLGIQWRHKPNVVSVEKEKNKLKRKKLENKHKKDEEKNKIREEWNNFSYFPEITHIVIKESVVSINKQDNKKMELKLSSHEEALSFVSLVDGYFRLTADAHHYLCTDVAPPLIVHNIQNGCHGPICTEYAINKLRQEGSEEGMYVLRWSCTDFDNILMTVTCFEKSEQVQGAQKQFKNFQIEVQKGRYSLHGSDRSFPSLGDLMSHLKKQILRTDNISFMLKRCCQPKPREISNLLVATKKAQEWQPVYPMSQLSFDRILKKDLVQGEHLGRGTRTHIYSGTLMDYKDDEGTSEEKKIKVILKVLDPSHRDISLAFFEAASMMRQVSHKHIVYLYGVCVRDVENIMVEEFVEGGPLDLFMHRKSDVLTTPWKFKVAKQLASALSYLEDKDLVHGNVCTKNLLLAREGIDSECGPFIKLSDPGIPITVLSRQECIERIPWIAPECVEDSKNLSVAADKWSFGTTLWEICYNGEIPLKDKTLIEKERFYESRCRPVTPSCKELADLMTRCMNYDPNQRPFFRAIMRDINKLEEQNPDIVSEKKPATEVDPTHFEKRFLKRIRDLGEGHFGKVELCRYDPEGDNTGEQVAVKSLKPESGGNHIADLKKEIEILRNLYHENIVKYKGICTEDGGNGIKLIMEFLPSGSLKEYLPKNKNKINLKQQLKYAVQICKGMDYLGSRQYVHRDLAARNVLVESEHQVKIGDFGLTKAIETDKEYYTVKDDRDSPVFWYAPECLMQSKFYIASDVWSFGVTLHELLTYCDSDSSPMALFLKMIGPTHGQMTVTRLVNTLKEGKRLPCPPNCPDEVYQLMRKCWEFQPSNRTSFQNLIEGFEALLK
Experiment: JAK Human TK kinase enzymatic radiometric assay (Eurofins), JAK 1
Conditions: 100 nM; value close to 100 indicates low JAK activity of the compound
Measurement type: JAK 1 Activity

| Chem smiles | Result number |
| --- | --- |
| C[C@@H]1CCN(C(=O)CC#N)C[C@@H]1N(C)c1ncnc2c1ccn2C(=O)N(C)CCN(C)C(=O)Nc1cc(N(C)C)ccc1N | 85 |
| Cc1ccc(NC(=O)N(C)CCN(C)C(=O)n2ccc3c(N(C)[C@H]4CN(C(=O)CC#N)CC[C@H]4C)ncnc32)c(N)c1 | 66 |
| C[C@@H]1CCN(C(=O)CC#N)C[C@@H]1N(C)c1ncnc2c1ccn2C(=O)N(C)CCN(C)C(=O)Nc1cc2c(cc1N)n(C)c(=O)n2C | 77 |
| Cc1ccc(NC(=O)N(C(=O)n2ccc3c(N(C)[C@H]4CN(C(=O)CC#N)CC[C@H]4C)ncnc32)c2ccc(C)cc2N)c(N)c1 | 81 |
| C[C@@H]1CCN(C(=O)CC#N)C[C@@H]1N(C)c1ncnc2c1ccn2C(=O)N(C(=O)Nc1ccccc1N)c1ccccc1N | 101 |
| C[C@@H]1CCN(C(=O)CC#N)C[C@@H]1N(C)c1ncnc2c1ccn2C(=O)N(C)CCN(C)C(=O)Nc1cc(N(C)C)ccc1NC(=O)OCc1ccc(B(O)O)cc1 | 83 |
| C[C@@H]1CCN(C(=O)CC#N)C[C@@H]1N(C)c1ncnc2c1ccn2C(=O)Nc1ccccc1N | 7 |

(P) COc1ccc(NC(=O)N(C(=O)n2ccc3c(N(C)[C@H]4CN(C(=O)CC#N)CC[C@H]4C)ncnc32)c2ccc(OC)cc2N)c(N)c1
(Q) Cc1ccc(N)c(NC(=O)N(C)CCN(C)C(=O)n2ccc3c(N(C)[C@H]4CN(C(=O)CC#N)CC[C@H]4C)ncnc32)c1
Between the two listed entries P and Q , which has its JAK 1 Activity at the higher number? Please reply using the label of the selected record.
P

---

Assay: DAF-2 assay of NO scavenging activity without and with H2O2 (ROS)
Assay type: biochemical
Settings: compound 1 µM; SNAP 100 µM, H2O2 1 mM, DAF-2 10 µM, 3 hours, 37°C
NO Scavenging Activity (%) (Mean±SD) With H2O2 by entry:
Report the value in % with no unit label.

| Compound | Measure unit | Result number |
| --- | --- | --- |
| CC[C@@H]1CN(C(=O)NCC(F)(F)F)C[C@@H]1c1cnc2cnc3c(ccn3C(=O)Nc3cc4c(cc3NC(=O)OCc3ccc(B(O)O)cc3)n(C)c(=O)n4C)n12 [Example 32] | % | 4.05 |
| C[C@@H]1CCN(C(=O)CC#N)C[C@@H]1N(C)c1ncnc2c1ccn2C(=O)N(C)CCN(C)C(=O)Nc1cc2c(cc1NC(=O)OCc1ccc(B(O)O)cc1)n(C)c(=O)n2C [Example 24] | % | 34.66 |
| C[C@@H]1CCN(C(=O)CC#N)C[C@@H]1N(C)c1ncnc2c1ccn2C(=O)N(C)CCN(C)C(=O)Nc1cc(N(C)C)ccc1NC(=O)OCc1ccc(B(O)O)cc1 [Example 23] | % | 25.76 |

// next entry
// NO Scavenging Activity (%) (Mean±SD) With H2O2 value for C[C@@H]1CCN(C(=O)CC#N)C[C@@H]1N(C)c1ncnc2c1ccn2C(=O)Nc1cc2c(cc1NC(=O)OCc1ccc(B3OC(C)(C)C(C)(C)O3)cc1)n(C)c(=O)n2C [Example 28] : 76.23

---

Target: JAK 1 (Homo sapiens, UniProt P23458)
Test: JAK Human TK kinase enzymatic radiometric assay (Eurofins), JAK 1
Settings: 10 nM; value close to 100 indicates low JAK activity of the compound
Measurement type: JAK 1 Activity

| Compound | JAK 1 Activity |
| --- | --- |
| Cc1ccc(N)c(NC(=O)N(C)CCN(C)C(=O)n2ccc3c(N(C)[C@H]4CN(C(=O)CC#N)CC[C@H]4C)ncnc32)c1 [Example 16] | 98 |
| Cc1ccc(NC(=O)N(C)CCN(C)C(=O)n2ccc3c(N(C)[C@H]4CN(C(=O)CC#N)CC[C@H]4C)ncnc32)c(N)c1 [Example 15] | 99 |
| COc1ccc(NC(=O)N(C(=O)n2ccc3c(N(C)[C@H]4CN(C(=O)CC#N)CC[C@H]4C)ncnc32)c2ccc(OC)cc2N)c(N)c1 [Example 13] | 106 |
| C[C@@H]1CCN(C(=O)CC#N)C[C@@H]1N(C)c1ncnc2c1ccn2C(=O)N(C)CCN(C)C(=O)Nc1cc(N(C)C)ccc1NC(=O)OCc1ccc(B(O)O)cc1 [Example 23] | 100 |
| C[C@@H]1CCN(C(=O)CC#N)C[C@@H]1N(C)c1ncnc2c1ccn2C(=O)Nc1ccccc1N [Example 1] | 45 |
| C[C@@H]1CCN(C(=O)CC#N)C[C@@H]1N(C)c1ncnc2c1ccn2C(=O)N(C(=O)Nc1ccccc1N)c1ccccc1N [Example 11] | 105 |

The origin of these recorded values is patent EP4741395A1.
